assay.target: GSK3α (GST-full length GSK3α) (Homo sapiens (Human), UniProt P49840)
Sequence (P49840 whole entry): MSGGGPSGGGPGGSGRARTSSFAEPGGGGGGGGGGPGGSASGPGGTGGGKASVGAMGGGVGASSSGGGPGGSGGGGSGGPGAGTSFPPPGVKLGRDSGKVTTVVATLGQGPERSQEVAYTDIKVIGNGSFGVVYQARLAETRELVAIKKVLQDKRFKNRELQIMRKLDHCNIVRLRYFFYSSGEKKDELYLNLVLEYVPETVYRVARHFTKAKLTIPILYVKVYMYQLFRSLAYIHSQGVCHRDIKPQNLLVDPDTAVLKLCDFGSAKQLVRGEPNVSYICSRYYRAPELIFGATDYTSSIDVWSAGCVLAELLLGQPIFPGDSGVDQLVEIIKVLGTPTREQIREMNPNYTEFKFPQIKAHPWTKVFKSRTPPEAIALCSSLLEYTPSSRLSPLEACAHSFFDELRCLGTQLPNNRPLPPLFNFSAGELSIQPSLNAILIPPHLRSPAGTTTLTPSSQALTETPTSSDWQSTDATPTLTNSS
procedure.details: GSK3α TR-FRET kinase assay
Format: biochemical
stated.conditions: 1 nM GSK3α, 4 μM ATP, 30 minute preincubation, Table 16; read-out: GSK3-A TR-FRET BIOCHEMICAL (TR-FRET); IC50
recorded.metric: IC50

Previously resolved entries follow.
compound	IC50
C[C@H]1CC(=O)C2=C(C1)Nc1n[nH]cc1C21CCOCC1	100 to 1000 nM
CC[C@]1(c2cccc(-c3cnn(C(F)F)c3)c2)C2=C(CC(C)(C)NC2=O)Nc2n[nH]cc21	≤ 100 nM
CC1(C)CC(=O)C2=C(C1)Nc1n[nH]cc1C21CCN(S(=O)(=O)C2CCOCC2)CC1	≤ 100 nM
CC[C@]1(c2cccc(N3C[C@H](C)[C@@H](C)C3)c2)C2=C(CC(C)(C)CC2=O)Nc2n[nH]cc21	> 5000 nM
CC[C@]1(c2cccc(N3CCC[C@H]3C)c2)C2=C(CC(C)(C)CC2=O)Nc2n[nH]cc21	> 5000 nM

Query: State the recorded IC50 for this entry: CCC1(c2cccc(-c3ccnc(C)c3)c2)C2=C(CC(C)(C)NC2=O)Nc2n[nH]c(C(F)F)c21 (stereo not drawn)
Reply: 100 to 1000 nM

Query: Same lookup for O=C1CC(C(F)(F)F)CC2=C1C1(CCOCC1)c1c[nH]nc1N2 (stereo not drawn) , please.
Reply: 100 to 1000 nM

Query: What about CCC1(c2cccc(N3CCCC3C)c2)C2=C(CC(C)(C)CC2=O)Nc2n[nH]cc21 (stereo not drawn) [Compound 918321] ?
Reply: ≤ 100 nM

Query: Moving on to CCC1(c2cccc(N(CCOC)C(C)=O)c2)C2=C(CC(C)(C)CC2=O)Nc2n[nH]cc21 (stereo not drawn)
Reply: ≤ 100 nM

Query: Next compound up: "CCc1cc(-c2cccc([C@@]3(CC)C4=C(CC(C)(C)NC4=O)Nc4n[nH]cc43)c2)n(C)n1"
Reply: 100 to 1000 nM

Query: Further, for CCC1(c2cccc(S(=O)(=O)CC)c2)C2=C(CC(C)(C)CC2=O)Nc2n[nH]cc21 (stereo not drawn) ?
Reply: ≤ 100 nM

Query: How about CCC1(c2cccc(N(C)c3cccnn3)c2)C2=C(CC(C)(C)CC2=O)Nc2n[nH]cc21 (stereo not drawn) [Compound 911976] ?
Reply: 100 to 1000 nM

Query: Request: "CC1(C)CC(=O)C2=C(C1)Nc1n[nH]cc1C21CCN(S(=O)(=O)C2CCCCC2)CC1"
Reply: ≤ 100 nM

Query: Let us now turn to CCc1cc(-c2cccc(C3(CC)C4=C(CC(C)(C)CC4=O)Nc4n[nH]cc43)c2)cc(CC)n1 (stereo not drawn)
Reply: 1000 to 5000 nM

Query: Do the same for "CC1(C)CC(=O)C2=C(C1)Nc1n[nH]cc1[C@]21CO[C@H](C2CC2)C1" please
Reply: 100 to 1000 nM

###

Reported pIC50 by item:
assay.target: GSK3α (GST-full length GSK3α) (Homo sapiens (Human), UniProt P49840)
procedure.details: GSK3α TR-FRET kinase assay
Assay type: biochemical
stated.conditions: 1 nM GSK3α, 4 μM ATP, 30 minute preincubation; read-out: GSK3-A TR-FRET BIOCHEMICAL (TR-FRET); IC50
pIC50: −log10 of the molar value.

Query: Notebook: pull reported pIC50 for GSK3α (GST-full length GSK3α) (Homo sapiens (Human), UniProt P49840), entry CC1(C)CC(=O)C2=C(C1)Nc1n[nH]cc1[C@@]21CCOC2(CCC2)C1 [Compound 897755]
Reply: 5.30 to 6.00

Query: Moving on to CCC1(c2cccc(C(F)(F)F)c2)C2=C(CC(C)(C)N(C)C2=O)Nc2n[nH]cc21 (centres unmarked) [Compound 826790]
Reply: ≥ 7.00

Query: Same for CCC1(c2cccc(-c3cnn(C)c3C)c2)C2=C(CC(C)(C)NC2=O)Nc2n[nH]c(C)c21 (centres unmarked) [Compound 944028]
Reply: ≥ 7.00

Query: Do the same for CC[C@@]1(c2cccc(C(F)(F)F)c2)C2=C(CCN(C(C)(C)C)C2=O)Nc2n[nH]cc21 [Compound 945633] please
Reply: < 5.30

Query: Thanks! And CC1(C)CC(=O)C2=C(C1)Nc1n[nH]cc1C21CCC2(CC2)CC1 [Compound 893312] ?
Reply: ≥ 7.00

Query: Request: CC1(C)CC(=O)C2=C(C1)Nc1n[nH]cc1C21COC2(CN(C(=O)C3CCC(F)CC3)C2)C1 (centres unmarked) [Compound 947267]
Reply: ≥ 7.00

Query: Next record, please: CCC1(c2cccc(C(F)(F)F)c2)C2=C(CC(C)NC2=O)Nc2n[nH]cc21 (centres unmarked) [Compound 911956]
Reply: ≥ 7.00

Query: Same question, CCC1(c2cccc(Br)c2)C2=C(CC(C)(C)NC2=O)Nc2n[nH]cc21 (centres unmarked) [Compound 913439] this time
Reply: ≥ 7.00

###

assay.target: GSK3b (GST-full length GSK3b) (Homo sapiens (Human))
Sequence (P49841 whole entry): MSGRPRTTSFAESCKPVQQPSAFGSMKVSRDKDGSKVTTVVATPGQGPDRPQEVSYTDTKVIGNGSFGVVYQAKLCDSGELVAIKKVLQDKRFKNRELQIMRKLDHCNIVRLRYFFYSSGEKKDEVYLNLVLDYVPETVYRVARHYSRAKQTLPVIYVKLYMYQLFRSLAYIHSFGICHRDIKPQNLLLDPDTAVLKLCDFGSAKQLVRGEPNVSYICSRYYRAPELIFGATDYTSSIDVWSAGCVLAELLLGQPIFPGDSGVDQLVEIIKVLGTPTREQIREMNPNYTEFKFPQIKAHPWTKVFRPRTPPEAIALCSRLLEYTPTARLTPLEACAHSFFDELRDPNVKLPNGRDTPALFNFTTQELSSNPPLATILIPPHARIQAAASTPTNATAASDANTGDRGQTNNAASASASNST
procedure.details: GSK3b TR-FRET kinase assay
Format: biochemical
stated.conditions: 1 nM GSK3b, 2 μM ATP, 30 minute preincubation, Table 16; read-out: GSK3-B TR-FRET BIOCHEMICAL (TR-FRET)
pIC50: −log10 of the molar value.
Below, each entry is listed with its recorded pIC50.

Some solved cases for reference:
compound	result.value
CC1(C)CC(=O)C2=C(C1)Nc1n[nH]cc1C21CCN(S(=O)(=O)c2ccccc2)CC1 [Compound 874530]	≥ 7.00
Cn1ccc(S(=O)(=O)N2CCCC3(CC2)C2=C(CC(C)(C)CC2=O)Nc2n[nH]cc23)n1 (stereo not shown) [Compound 917138]	≥ 7.00
CCC1(c2cccc(C(F)(F)F)c2)C2=C(CCCNC2=O)Nc2n[nH]cc21 (stereo not shown) [Compound 913355]	< 5.30
CC1(C)CC(=O)C2=C(C1)Nc1n[nH]cc1C21CCN(S(=O)(=O)c2ccc(F)cn2)CC1 [Compound 947251]	6.00 to 7.00
Cc1cnccc1[C@H]1CC[C@]2(CC1)C1=C(CC(C)(C)CC1=O)Nc1n[nH]cc12 [Compound 949319]	≥ 7.00
CCC1(c2cccc(Oc3cncnc3)c2)C2=C(CC(C)(C)CC2=O)Nc2n[nH]cc21 (stereo not shown) [Compound 945939]	< 5.30

Here's the next entry for you.
Query: GET /values?readout=pIC50&item= CCC1(c2cccc(-c3c(F)cncc3OC)c2)C2=C(Nc3n[nH]cc31)C(F)C(C)(C)CC2=O (stereo not shown) [Compound 948546]
Reply: ≥ 7.00

###

Entries and their IC50
assay.target: GSK3b (GST-full length GSK3b) (Homo sapiens (Human))
procedure.details: GSK3b TR-FRET kinase assay
Type: biochemical
stated.conditions: 1 nM GSK3b, 2 μM ATP, 30 minute preincubation, Table 16; read-out: GSK3-B TR-FRET BIOCHEMICAL (TR-FRET)

compound	IC50
CCC1(c2cccc(-c3cnc(C)n3C)c2)C2=C(CC(C)(C)CC2=O)Nc2n[nH]cc21 (stereo not shown)	100 to 1000 nM
CC1(C)CC(=O)C2=C(C1)Nc1n[nH]cc1C21CC(C(F)(F)F)C1 (stereo not shown)	100 to 1000 nM
C[C@H]1CC[C@]2(C1)C1=C(CC(C)(C)CC1=O)Nc1n[nH]cc12	100 to 1000 nM

Query: If you can, please state the reported IC50 value of "CC1(C)CC(=O)C2=C(C1)Nc1n[nH]cc1[C@]21C[C@H](n2cccn2)C1" .
Reply: ≤ 100 nM

###

Quick reference for pIC50 among some compounds
assay.target: GSK3α (GST-full length GSK3α) (Homo sapiens (Human))
procedure.details: GSK3α TR-FRET kinase assay
Type: biochemical
stated.conditions: 1 nM GSK3α, 4 μM ATP, 30 minute preincubation, Table 16; read-out: GSK3-A TR-FRET BIOCHEMICAL (TR-FRET); IC50
pIC50: −log10 of the molar value.

compound	assay.target	recorded.metric	result.value
CCC1(c2cccc(-c3ccncc3)c2)C2=C(CC(C)(C)CC2=O)Nc2n[nH]cc21 (stereo not drawn) [Compound 883984]	GSK3α (GST-full length GSK3α) (Homo sapiens (Human))	pIC50	≥ 7.00

Query: If you can, please state the reported pIC50 value of CCC1(c2cccc(C(F)(F)F)c2)C2=C(CC(C)(C)C2=O)Nc2n[nH]cc21 (stereo not drawn) [Compound 950273] .
Reply: < 5.30

Query: Then CC[C@@]1(c2cccc(-c3cnn(C)c3)c2)C2=C(CC(C)(C)NC2=O)Nc2n[nH]c(C(F)F)c21 [Compound 949919] ?
Reply: ≥ 7.00

Query: Now consider CC[C@@]1(c2cccc(C(C)C)c2)C2=C(CC(C)(C)NC2=O)Nc2n[nH]c(C)c21 [Compound 949646] and answer again.
Reply: < 5.30
